# credit: paper PMC8878317

# Test system: P. falciparum MMV084978-resistant clones (Dd2-B2 derived)
# assay_remarks: Dose-response assay of MMV084978-selected resistant clones
# Assay type: cell-based
# run_conditions: Plasmodium falciparum, DD2, read-out: MMV084978 mean EC50 (nM) ± SD (n), selection 1, Dd2-B2, clone F1, sequencing not determined
# Protocol: Ring-stage parasites were cultured for 72 hr at 1% hematocrit and 1% starting parasitemia in 384-well black clear-bottom plates containing test compounds plated in triplicate in 12-point serial dilutions. […] Parasite survival was assessed by flow cytometry on an Accuri C6 (BD Biosciences) using SYBR Green and MitoTracker Deep Red FM (Life Technologies) as nucleic acid stain and vital dyes respectively. […]
property: EC50 (nM)
Just the number please, in nM, no unit attached.

**Query** Name the value of EC50 reported for O=C(NNC(=O)c1csnn1)c1ccc(Cl)cc1 [MMV084978] when tested on P. falciparum MMV084978-resistant clones (Dd2-B2 derived).
**Result** 2800

====

# System: P. falciparum Dd2:A597V (CRISPR edited PfAcAS)
# assay_remarks: Blood-stage dose-response assay, CRISPR-edited Dd2:A597V line
# Type: cell-based
# run_conditions: Plasmodium falciparum, mean ± SD, n bioreplicates
pEC50: −log10 of the molar value.
Rule: pEC50 of 8 or more gives true; anything lower gives false.

Worked set:
molecule: C[C@H]1[C@@H](O)O[C@@H]2O[C@@]3(C)CC[C@H]4[C@H](C)CC[C@@H]1[C@@]24OO3 [Dihydroartemisinin]
target_or_system: P. falciparum Dd2:A597V (CRISPR edited PfAcAS)
group_label: true
//
molecule: CCN(CC)S(=O)(=O)c1ccc(Cl)c(C(=O)Nc2ccc3nc(C)sc3c2)c1
target_or_system: P. falciparum Dd2:A597V (CRISPR edited PfAcAS)
group_label: false
//
molecule: O=C(NNC(=O)c1csnn1)c1ccc(Cl)cc1
target_or_system: P. falciparum Dd2:A597V (CRISPR edited PfAcAS)
group_label: false
//
molecule: O=C1C(O)=C([C@H]2CC[C@H](c3ccc(Cl)cc3)CC2)C(=O)c2ccccc21 [Atovaquone, reference compound]
target_or_system: P. falciparum Dd2:A597V (CRISPR edited PfAcAS)
group_label: true
//
molecule: CCN(CC)Cc1cc(Nc2ccnc3cc(Cl)ccc23)ccc1O
target_or_system: P. falciparum Dd2:A597V (CRISPR edited PfAcAS)
group_label: false

**Query** Given OC(c1cc(C(F)(F)F)nc2c(C(F)(F)F)cccc12)C1CCCCN1 (stereo not drawn) , state whether its pEC50 is at least 8.
**Result** false

====

Metabolite data: PD values, listed per item
# System: P. falciparum 3D7 parasites
# assay_remarks: Metabolomic profiling of compound-treated parasites (LC/MS)
# Assay type: cell-based
// return a plain number; no unit text

Here's what some known entries look like.
compound: O=C1C(O)=C([C@H]2CC[C@H](c3ccc(Cl)cc3)CC2)C(=O)c2ccccc21 [Atovaquone, reference compound]
value_measured: 0

compound: N#Cc1cc(NC(=O)[C@H]2c3ccccc3C(=O)N(CC(F)(F)F)[C@@H]2c2cccnc2)ccc1F [SJ733]
value_measured: -1.25

compound: C[C@H]1Cc2c([nH]c3cc(Cl)c(F)cc23)[C@@]2(N1)C(=O)Nc1ccc(Cl)cc12 [NITD609]
value_measured: 0

compound: Cc1cc(Nc2ccc3ccccc3c2)n2ncnc2n1 [DSM1]
value_measured: -0.209

compound: CCc1nc(N)nc(N)c1-c1ccc(Cl)cc1 [Pyrimethamine]
value_measured: 0.177

**Query** Name the value of Metabolite data: PD reported for O=C(NNC(=O)c1csnn1)c1ccc(Cl)cc1 [MMV084978-1] when tested on P. falciparum 3D7 parasites.
**Result** -0.5076

**Query** Name the value of Metabolite data: PD reported for CC1(C)N=C(N)N=C(N)N1OCCCOc1cc(Cl)c(Cl)cc1Cl [WR99210] when tested on P. falciparum 3D7 parasites.
**Result** 0

**Query** Name the value of Metabolite data: PD reported for COc1cc2[nH]c(C)c(-c3ccc(Oc4ccc(OC(F)(F)F)cc4)cc3)c(=O)c2cc1Cl [ELQ-300] when tested on P. falciparum 3D7 parasites.
**Result** -0.006669

**Query** Name the value of Metabolite data: PD reported for CCN(CC)S(=O)(=O)c1ccc(Cl)c(C(=O)Nc2ccc3nc(C)sc3c2)c1 [MMV019721-1] when tested on P. falciparum 3D7 parasites.
**Result** -0.67

====

# Tested on: P. falciparum MMV019721-resistant lines (3D7-A10 or Dd2-B2 derived)
# assay_remarks: Dose-response assay of MMV019721-selected resistant lines (bulk cultures and clones)
# Assay type: cell-based
# run_conditions: Plasmodium falciparum, read-out: MMV019721 mean EC50 (nM) ± SD (n), selection 13, 3D7-A10, clone 3D10, ACS11: Asp269Gly
property: EC50 (nM)
Just the number please, in nM, no unit attached.

**Query** Name the value of EC50 reported for CCN(CC)S(=O)(=O)c1ccc(Cl)c(C(=O)Nc2ccc3nc(C)sc3c2)c1 [MMV019721] when tested on P. falciparum MMV019721-resistant lines (3D7-A10 or Dd2-B2 derived).
**Result** 1500

====

# target_or_system: UniProtKB C6KTB4
# Sequence (C6KTB4 entry or part of it): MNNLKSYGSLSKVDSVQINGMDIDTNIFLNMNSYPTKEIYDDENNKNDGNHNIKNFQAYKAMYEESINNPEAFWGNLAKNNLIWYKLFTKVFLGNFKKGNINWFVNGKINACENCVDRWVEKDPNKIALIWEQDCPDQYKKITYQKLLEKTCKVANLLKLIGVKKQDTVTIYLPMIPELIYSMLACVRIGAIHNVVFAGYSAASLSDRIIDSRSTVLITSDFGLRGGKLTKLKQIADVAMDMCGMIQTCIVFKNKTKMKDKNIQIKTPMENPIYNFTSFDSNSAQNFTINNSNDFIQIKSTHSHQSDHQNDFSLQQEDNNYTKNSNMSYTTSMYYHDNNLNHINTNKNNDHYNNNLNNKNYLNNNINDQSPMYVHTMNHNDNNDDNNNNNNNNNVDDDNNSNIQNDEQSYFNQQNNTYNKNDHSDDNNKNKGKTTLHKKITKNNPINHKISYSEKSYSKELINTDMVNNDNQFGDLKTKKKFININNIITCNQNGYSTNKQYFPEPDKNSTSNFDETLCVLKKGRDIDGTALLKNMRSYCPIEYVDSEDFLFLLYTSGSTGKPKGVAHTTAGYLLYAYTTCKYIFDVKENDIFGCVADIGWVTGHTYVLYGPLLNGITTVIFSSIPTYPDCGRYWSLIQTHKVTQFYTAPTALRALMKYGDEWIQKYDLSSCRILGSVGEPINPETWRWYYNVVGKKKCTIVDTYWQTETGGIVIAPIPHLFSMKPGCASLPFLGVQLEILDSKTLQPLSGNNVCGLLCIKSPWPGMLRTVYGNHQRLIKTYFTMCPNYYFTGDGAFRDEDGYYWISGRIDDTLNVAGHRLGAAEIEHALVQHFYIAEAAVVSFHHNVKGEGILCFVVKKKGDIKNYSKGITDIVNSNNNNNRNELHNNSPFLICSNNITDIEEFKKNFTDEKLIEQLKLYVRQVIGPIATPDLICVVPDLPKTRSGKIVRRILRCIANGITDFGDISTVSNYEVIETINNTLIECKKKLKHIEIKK
# assay_remarks: PfAcAS mode of inhibition studies (EnzChek)
# Assay type: biochemical, P. falciparum
# run_conditions: variable CoA, saturating ATP and acetate; read-out: Ki versus CoA
# Experimental: Steady-state kinetic measurements were conducted at room temperature using a PheraStar plate reader (BMG). The first step of the reaction of PfAcAS, which produces inorganic pyrophosphate (PPi) that is converted to two molecules of inorganic phosphate using a pyrophosphatase enzyme, was continuously monitored using the EnzChek Phosphate Assay Kit, which gives an absorbance readout at 360 nm (Figure 4A) ([Webb, 1992]). […]
pKi values, listed per item
Please note pKi is a logarithmic value: minus log10 of concentration in mol/L. Answer with that number alone.

record_smiles: O=C(NNC(=O)c1csnn1)c1ccc(Cl)cc1
property: pKi
value_measured: 6.16

Turning now to a further record.
**Query** Recall and state the measured pKi for `CCN(CC)S(=O)(=O)c1ccc(Cl)c(C(=O)Nc2ccc3nc(C)sc3c2)c1` .
**Result** 7.66

====

Metabolite data: N-Acetyl-L-Alanine values, listed per item
# System: P. falciparum 3D7 parasites
# assay_remarks: Metabolomic profiling of compound-treated parasites (LC/MS)
# Type: cell-based
// return a plain number; no unit text

Here's what some known entries look like.
compound: CCN(CC)S(=O)(=O)c1ccc(Cl)c(C(=O)Nc2ccc3nc(C)sc3c2)c1
target_or_system: P. falciparum 3D7 parasites
property: Metabolite data: N-Acetyl-L-Alanine
value_measured: 0.6768
//
compound: O=C1C(O)=C([C@H]2CC[C@H](c3ccc(Cl)cc3)CC2)C(=O)c2ccccc21 [Atovaquone, reference compound]
target_or_system: P. falciparum 3D7 parasites
property: Metabolite data: N-Acetyl-L-Alanine
value_measured: 0.22
//
compound: CCc1nc(N)nc(N)c1-c1ccc(Cl)cc1
target_or_system: P. falciparum 3D7 parasites
property: Metabolite data: N-Acetyl-L-Alanine
value_measured: 0.1511

Turning now to a further record.
**Query** Recall and state the measured Metabolite data: N-Acetyl-L-Alanine for `C[C@H]1Cc2c([nH]c3cc(Cl)c(F)cc23)[C@@]2(N1)C(=O)Nc1ccc(Cl)cc12` .
**Result** -1.42

====

# Tested on: P. falciparum 3D7 parasites
# assay_remarks: Metabolomic profiling of compound-treated parasites (LC/MS)
# Assay type: cell-based
property: Metabolite data: N-Acetyl-Glutamate
// return a plain number; no unit text

Here's what some known entries look like.
molecule: N#Cc1cc(NC(=O)[C@H]2c3ccccc3C(=O)N(CC(F)(F)F)[C@@H]2c2cccnc2)ccc1F [SJ733]
target_or_system: P. falciparum 3D7 parasites
property: Metabolite data: N-Acetyl-Glutamate
value_measured: -0.1913
--
molecule: O=C(NNC(=O)c1csnn1)c1ccc(Cl)cc1 [MMV084978-1]
target_or_system: P. falciparum 3D7 parasites
property: Metabolite data: N-Acetyl-Glutamate
value_measured: -1.234
--
molecule: O=C1C(O)=C([C@H]2CC[C@H](c3ccc(Cl)cc3)CC2)C(=O)c2ccccc21 [Atovaquone, reference compound]
target_or_system: P. falciparum 3D7 parasites
property: Metabolite data: N-Acetyl-Glutamate
value_measured: 0.13

**Query** Recall and state the measured Metabolite data: N-Acetyl-Glutamate for C[C@H]1Cc2c([nH]c3cc(Cl)c(F)cc23)[C@@]2(N1)C(=O)Nc1ccc(Cl)cc12 [NITD609] .
**Result** -0.27

====

# Tested on: P. falciparum 3D7 parasites
# assay_remarks: Metabolomic profiling of compound-treated parasites (LC/MS)
# Type: cell-based
Metabolite data: NADH values, listed per item

record_smiles: CCc1nc(N)nc(N)c1-c1ccc(Cl)cc1
property: Metabolite data: NADH
value_measured: 4.9
//
record_smiles: Cc1cc(Nc2ccc3ccccc3c2)n2ncnc2n1
property: Metabolite data: NADH
value_measured: 0.07835

Turning now to a further record.
**Query** Name the value of Metabolite data: NADH reported for `COc1cc2[nH]c(C)c(-c3ccc(Oc4ccc(OC(F)(F)F)cc4)cc3)c(=O)c2cc1Cl` when tested on P. falciparum 3D7 parasites.
**Result** 1.43
